Reference for the values: PubChem BioAssay (NCI)

- Tested on: PC-3 prostate
- assay-procedure: NCI-60 one-dose screen, 48 h
- assay-setup: 10 µM unless noted
This is part of a sample that, as a whole, favours compounds with a hit. Of some 83,000 tested, about 20% had one in any assay. Active and inactive are the calls of the source. How the source made its calls: active means growth percent below 10; inactive means the rest.
// one of t (active), f (inactive), no free text

Ask: Call for entry COC(=O)[C@]12CC[C@@H](C)[C@H](C)[C@@H]1C1=CC[C@@H]3[C@@]4(C)C[C@@H](OC(C)=O)[C@H](OC(C)=O)[C@@](C)(COC(C)=O)[C@@H]4[C@H](O)C[C@@]3(C)[C@]1(C)CC2 :
Result: t

Ask: Call for entry Cc1ccccc1-c1nc(C(Cl)Cl)nc2cc(-c3ccccc3)nn12 :
Result: f

Ask: Call for entry Cc1ccc(S(=O)(=O)Nc2ccc(-c3cc(-c4cccc(F)c4)c(C#N)c(=O)[nH]3)cc2)cc1 :
Result: f

Ask: Call for entry COc1ccccc1CNc1nc(N)nc2[nH]c3ccc(O)cc3c12 :
Result: f

Ask: Call for entry CC(=O)OC[C@]12CC[C@@H](/C(C)=N/O)[C@@H]1[C@H]1CC[C@@H]3[C@@]4(C)CCCNC(C)(C)[C@@H]4CC[C@@]3(C)[C@]1(C)CC2 :
Result: f

Ask: Call for entry Cn1c2c(Cl)c(Cl)ccc2c2c(C#N)c[nH]c(=O)c21 :
Result: f

Ask: Call for entry C=C(C)[C@@H]1CC[C@]2(C)[C@H](CC=C3[C@@H]4CC(C)(C)CC[C@]4(C(=O)OC)CC[C@]32C)[C@@]1(C)CC/C(N)=N/O :
Result: f

Ask: Call for entry C=C(C)[C@@H]1CC[C@]2(C=O)CC[C@]3(C)[C@H](CC[C@@H]4[C@@]5(C)C/C(=C/c6cccnc6)C(=O)C(C)(C)[C@@H]5CC[C@]43C)[C@@H]12 :
Result: f

Ask: Call for entry Cc1cc(C)n(Cc2cc(C(C)(C)C)cc(C(C)(C)C)c2)c(=O)c1C#N :
Result: f

Ask: Call for entry O=C1CCN2C(=O)Nc3ccccc3C2C1 (stereo not given) :
Result: f

Ask: Call for entry C[C@@H](C(=O)O)c1ccc2c3cc(Cl)ccc3n(Cc3cc(=O)oc4ccc(Cl)cc34)c2c1 :
Result: f

Ask: Call for entry Brc1cnc2[nH]cc(-c3nnc(-c4ccccc4)o3)c2c1 :
Result: f

Ask: Call for entry C=C(C)[C@@H]1CC[C@]2(C(=O)OC)CC[C@]3(C)[C@H](CC[C@@H]4[C@@](C)(CC/C(N)=N/O)[C@H](C(=C)C)CC[C@]43C)[C@@H]12 :
Result: f

Ask: Call for entry O=C(N/N=C\c1ccccc1O)C1CC1 :
Result: f

Ask: Call for entry COc1ccc(NC(=O)c2ccoc2COc2ccccc2)cc1 :
Result: f

Ask: Call for entry Cn1cc(-c2csc(-c3cn(CCCN4CCCCC4)c4ccccc34)n2)c2cccnc21 :
Result: t

Ask: Call for entry CCCCC[C@H]1C/C=C2/C(=O)C(Cl)=C[C@@H]2C/C=C\CCCC(=O)O[C@@H](CCCCC)C/C=C2/C(=O)C(Cl)=C[C@@H]2C/C=C\CCCC(=O)O1 :
Result: t

Ask: Call for entry c1cc(N2CCCC2)c2nc(-c3[nH]ncc3Nc3ncnc4[nH]ccc34)[nH]c2c1 :
Result: t

Ask: Call for entry COc1ccc(/C=C(\C#N)c2cc3ccccc3n2S(C)(=O)=O)cc1 :
Result: f

Ask: Call for entry CCNCCCn1c2c(c3ccc([N+](=O)[O-])cc3c1=O)C(=O)c1cc(OC)cnc1-2 :
Result: t

Ask: Call for entry Cc1cc(C)nc(NC(N)=NCCc2ccccc2)n1 :
Result: f

Ask: Call for entry COc1ccc(NC(=S)N/N=C/c2ccccc2SSCCC(=O)OC[C@H]2O[C@H](O)[C@H](O)[C@@H](O)[C@@H]2O)cc1 :
Result: f

Ask: Call for entry Cn1cc(-c2csc(-c3cn(CCNC(=O)OC(C)(C)C)c4ccccc34)n2)c2cccnc21 :
Result: f

Ask: Call for entry COc1ccc2c(c1)C(Br)=C(CCO)C2c1ccccc1 (stereo not given) :
Result: f

Ask: Call for entry COc1ccc(CCN2C(=O)C(C)(C)SC2=S)cc1OC :
Result: f

Ask: Call for entry C#Cc1cc2c(N)c(C(=O)c3cc(OC)c(OC)c(OC)c3)[nH]c2cc1OC :
Result: f

Ask: Call for entry CC1(C)CC[C@]2(C(=O)NCCNCCN)CC[C@]3(C)C(=CC[C@@H]4[C@@]5(C)CCC(=O)C(C)(C)[C@@H]5CC[C@]43C)[C@@H]2C1 :
Result: f

Ask: Call for entry Cn1cc(-c2nc(-c3c[nH]c4ncccc34)cs2)c2cc(F)ccc21 :
Result: f

Ask: Call for entry Cc1cc(N2CCCCC2)nc(N(CCNc2ccnc3cc(Cl)ccc23)Cc2ccco2)n1 :
Result: f

Ask: Call for entry CCN1CCN(C(=O)[C@]23CCC(C)(C)C[C@@H]2C2=CC[C@@H]4[C@@]5(C)C/C(=C/c6ccncc6)C(=O)C(C)(C)[C@@H]5CC[C@@]4(C)[C@]2(C)CC3)CC1 :
Result: t

Ask: Call for entry Cc1ccc(Cc2cnc(NC(=O)/C=C/c3cccc(C)c3)s2)cc1 :
Result: f

Ask: Call for entry COc1ccc(C2(Cl)c3ccccc3N(c3ccccc3)c3ccccc32)cc1 :
Result: t

Ask: Call for entry COc1ccc(C2NC(=O)Nc3ccccc32)c(OC)c1 (stereo not given) :
Result: f

Ask: Call for entry COc1cccc(-c2nn(-c3ccccc3)cc2-c2ccnc(NCCNS(=O)(=O)c3cccc(F)c3)c2)c1 :
Result: f

Ask: Call for entry Brc1ccc(Cn2nnnc2-c2ccn(-c3ccccc3)n2)cc1 :
Result: f
